# maps each entry to its % reduction
Molecular target: antibodies against ISV in serum sample IHUS#B09032311A1
Assay: ECL drug-displacement assay vs labelled SEQ ID NO:1

BINDER | OUTPUT_UNIT | % reduction
SEQ ID NO: 24, Wildtype VHH + A14P (VHH) VHH: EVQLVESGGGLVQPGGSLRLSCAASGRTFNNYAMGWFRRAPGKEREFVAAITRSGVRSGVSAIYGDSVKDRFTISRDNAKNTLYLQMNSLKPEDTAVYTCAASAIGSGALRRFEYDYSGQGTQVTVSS | % | 10
SEQ ID NO: 23, Wildtype VHH (VHH) VHH: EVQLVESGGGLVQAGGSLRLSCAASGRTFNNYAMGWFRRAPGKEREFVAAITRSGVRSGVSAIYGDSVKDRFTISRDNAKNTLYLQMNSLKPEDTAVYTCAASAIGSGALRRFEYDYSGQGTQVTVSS | % | 4
SEQ ID NO: 26, Wildtype VHH + Q108L (VHH) VHH: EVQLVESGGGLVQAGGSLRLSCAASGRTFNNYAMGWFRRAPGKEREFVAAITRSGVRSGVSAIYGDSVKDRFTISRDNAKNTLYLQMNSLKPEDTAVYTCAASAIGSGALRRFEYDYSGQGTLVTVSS | % | 5
SEQ ID NO: 25, Wildtype VHH + K83R (VHH) VHH: EVQLVESGGGLVQAGGSLRLSCAASGRTFNNYAMGWFRRAPGKEREFVAAITRSGVRSGVSAIYGDSVKDRFTISRDNAKNTLYLQMNSLRPEDTAVYTCAASAIGSGALRRFEYDYSGQGTQVTVSS | % | 1

Reference for the values: patent US20200216532A1
